tested on: SR leukemia; assay: NCI-60 one-dose screen, 48 h; settings: 10 µM
This is part of a sample that, as a whole, favours compounds with a hit. Of some 83,000 tested, about 20% had one in any assay. Active and inactive are the calls of the source. The calls were made as follows: active = growth percent below 10; inactive = the rest.
The reply should name one outcome from label 1 for active, label 0 for inactive

Completed entries (count: 4):
# COMPOUND, LABEL_VALUE
rows = [
    ("O=C1C=Cc2ccccc2C1=O", "label 0"),
    ("CC[C@@]1(O)C[C@H](OC2CC(N(C)C)C(O)C(C)O2)c2c(cc3c(c2O)C(=O)c2c(O)ccc(O)c2C3=O)[C@H]1C(=O)OC (stereo not given in full)", "label 1"),
    ("COc1ccc(/C=C(\\C)[N+](=O)[O-])cc1OC", "label 1"),
    ("C=C1C(=O)O[C@@H]2C[C@@H](C)[C@@H]3C=CC(=O)[C@@]3(C)[C@@H](O)[C@H]12", "label 1"),
]

Identify the outcome logged in this assay for the compound shown: `[Cl][Sn]([c]1ccccc1)([c]1ccccc1)[c]1ccccc1`
label 1

====

test system: K-562 leukemia; experiment: NCI-60 one-dose screen, 48 h; conditions: 10 µM
Compounds without any hit were thinned out: in the full panel of roughly 83,000, 20% have a hit. Calls of active or inactive are those of the source. How the source made its calls: active means growth percent below 10; inactive means the rest.
Respond only with the outcome that fits, drawn from class 1 = active, class 0 = inactive

These solved cases illustrate the format of a correct answer.
# COMPOUND, ASSAY_SYSTEM, LABEL_VALUE
rows = [
    ("COc1cc(/C=C/[N+](=O)[O-])cc(Br)c1OC", "K-562 leukemia", "class 1"),
    ("C#CC1(O)CCC(C(C)(C)C)CC1 (configuration not stated)", "K-562 leukemia", "class 0"),
]

Field: outcome | Entry: O=C(O)c1cc(Cc2ccc(O)c(C(=O)O)c2)ccc1O (tested in a mixture with another compound)
class 0

====

tested on: K-562 leukemia; assay: NCI-60 one-dose screen, 48 h (100 = growth as untreated, 0 = no growth, -100 = all killed); conditions: 10 µM
The panel holds about 83,000 compounds, 20% with a hit somewhere; the sample as a whole holds those more often.
Note to self: values exactly at 70% are yes (1). So growth at or above 70% is yes (1), below is no (0).

The following compounds have reported results that may help.
# COMPOUND, LABEL_VALUE
records = [
    ("O=[N+]([O-])/C=C\\c1ccc2c(c1)OCO2", "yes (1)"),
    ("CC[C@@H](C)[C@@H]1NC(=O)C(NC(=O)C(CC(C)C)N(C)C(=O)C2CCCN2C(=O)C(C)O)C(C)OC(=O)C(Cc2ccc(OC)cc2)N(C)C(=O)C2CCCN2C(=O)C(CC(C)C)NC(=O)C(C)C(=O)C(C(C)C)OC(=O)C[C@H]1O (some centres not stated)", "no (0)"),
    ("CC1CCC2(OC1)OC1C(O)C3C4CCC5CC(OC6OC(CO)C(OC7OC(CO)C(O)C(OC8OCC(O)C(O)C8O)C7OC7OC(CO)C(O)C(OC8OC(CO)C(O)C(O)C8O)C7O)C(O)C6O)C(O)CC5(C)C4CCC3(C)C1C2C (configuration not stated)", "no (0)"),
]

Decide: is the reported value of growth for COC12c3c(C)cc(O)c4c(=O)occ(c34)C(=O)C1C13COC(=O)c4c(O)cc(C)c(c41)C(=O)C2C3OC(C)=O (configuration not stated) equal to or greater than 70%?
yes (1)

hey, is growth for this one >= 70%? `ClCc1ccc2ccccc2n1`
yes (1)

====

system: NCI-H226 lung; assay: NCI-60 one-dose screen, 48 h (100 = growth as untreated, 0 = no growth, -100 = all killed); conditions: 10 µM
About 83,000 compounds went through this panel and 20% of them were active in at least one assay; those are over-represented in the sample as a whole.
ASSAY_ENDPOINT: growth (%)
Number in %, nothing else.

Answered examples (10):
# MOLECULE, VALUE_UNITS, growth
data = [
    ("Cc1ccc(NC(=O)CBr)cc1", "%", 103),
    ("C#CC1(O)CCC(C(C)(C)C)CC1 (configuration not stated)", "%", 111),
    ("CN(CCCl)c1ccc(/C=C/C2=[N+](C)c3ccccc3C2(C)C)cc1", "%", 46.6),
    ("COc1ccc2c(ccc3oc([N+](=O)[O-])cc32)c1", "%", -4.88),
    ("ClCc1ccc2ccccc2n1", "%", 78.2),
    ("NC(=O)c1cc([N+](=O)[O-])c(Cl)c([N+](=O)[O-])c1", "%", 102),
    ("S=C=NCCc1ccccc1", "%", 85.8),
    ("COC(=O)C1C(O)C(C)C(O)C(C)/C=C\\C=C(C)C(=O)Nc2c(C)c(OC(C)=O)c3c(c2O)C(=O)C(C)=C2OCOC(=C23)C(C)=CC(C)(O)C(O)C(C)C1O (configuration not stated)", "%", 99.2),
    ("CC(Cc1ccc2c(c1)OCO2)NN (configuration not stated)", "%", 87.1),
    ("COc1cc([N+](=O)[O-])c2ncccc2c1[N+](=O)[O-]", "%", 77.1),
]

Give its growth value. Item: COc1ccccc1[As]=[As]c1ccccc1OC (configuration not stated)
-93.5

# input molecule: `O=C1C=Cc2ccccc2C1=O` ; wanted: its growth
100

====

Quick list: growth per entry.
test system: MOLT-4 leukemia; experiment: NCI-60 one-dose screen, 48 h (100 = growth as untreated, 0 = no growth, -100 = all killed); conditions: 10 µM
This is part of a sample that, as a whole, favours compounds with a hit. Of some 83,000 tested, about 20% had one in any assay.
Numbers only; they are read as %.

Worked set:
# COMPOUND, ASSAY_ENDPOINT, REPORTED
data = [
    ("CC1CCC2(OC1)OC1C(O)C3C4CCC5CC(OC6OC(CO)C(OC7OC(CO)C(O)C(OC8OCC(O)C(O)C8O)C7OC7OC(CO)C(O)C(OC8OC(CO)C(O)C(O)C8O)C7O)C(O)C6O)C(O)CC5(C)C4CCC3(C)C1C2C (stereo not given)", "growth", 28.8),
    ("COC1CC2C=C(C)/C=C/C=C/C(=O)NC(c3ccccc3)C/C=C/CCC(O)CC(=O)C2=C1O (stereo not given)", "growth", -59.5),
    ("O=S(=O)(F)c1ccc(Cl)cc1", "growth", 105),
    ("COc1ccc(/C=C(\\C)[N+](=O)[O-])cc1OC", "growth", -25),
    ("N#CCc1ccccc1", "growth", 97.9),
]

Name the recorded growth for `CN(CCCl)c1ccc(/C=C/C2=[N+](C)c3ccccc3C2(C)C)cc1` .
-13.1

For COC(=O)C1C(O)C(C)C(O)C(C)/C=C\C=C(C)C(=O)Nc2c(C)c(OC(C)=O)c3c(c2O)C(=O)C(C)=C2OCOC(=C23)C(C)=CC(C)(O)C(O)C(C)C1O (stereo not given) , what is its reported growth?
51.9

====

system: DU-145 prostate; assay: NCI-60 one-dose screen, 48 h (100 = growth as untreated, 0 = no growth, -100 = all killed); settings: 10 µM
About 83,000 compounds went through this panel and 20% of them were active in at least one assay; those are over-represented in the sample as a whole.
ASSAY_ENDPOINT: growth (%)
Provide the reading as a plain figure in %.

The following compounds have reported results that may help.
# MOL_SMILES, growth [%]
measured = [
    ("C[C@]12CC[C@H]3[C@@H](CCC4=CC(=O)CC[C@@H]43)[C@@H]1CC[C@@H]2OC(=O)N(CCCl)N=O", 1.81),
    ("Oc1c(Cl)cc(Cl)c2ccccc12.[Cu+2]", 106),
    ("CC(C)c1cc([N+](=O)[O-])cc([N+](=O)[O-])c1O", 110),
    ("O=S(=O)(F)c1ccc(Cl)cc1", 130),
    ("Oc1c(I)cc(I)cc1I", 114),
]

Now for another entry.
Requested field: growth. Item: `COc1cc2c(c(OC)c1OC)-c1ccc(O)c(=O)cc1[C@@H](NC(C)=O)CC2`
61.5

====

Each entry below carries its reported growth.
test system: SW-620 colon; experiment: NCI-60 one-dose screen, 48 h (100 = growth as untreated, 0 = no growth, -100 = all killed); conditions: 10 µM
About 83,000 compounds went through this panel and 20% of them were active in at least one assay; those are over-represented in the sample as a whole.
State just the number; it will be interpreted in %.

# MOLECULE, ASSAY_SYSTEM, growth / %
rows = [
    ("C[C@@H]1C[C@@H]([C@H](O)CC2CC(=O)NC(=O)C2)C(=O)[C@@H](C)C1", "SW-620 colon", 8.04),
    ("CS(=N)(=O)CCC(N)C(=O)O (configuration not stated)", "SW-620 colon", 103),
    ("O=C1C(=O)c2ccccc2-c2ccccc21", "SW-620 colon", -63.3),
    ("Oc1c(Cl)cc(Cl)c2ccccc12.[Cu+2]", "SW-620 colon", 88.3),
    ("C#CC1(O)CCC(C(C)(C)C)CC1 (configuration not stated)", "SW-620 colon", 106),
    ("CC(Cc1ccc2c(c1)OCO2)NN (configuration not stated)", "SW-620 colon", 98.7),
]

Consider now this further molecule.
Need growth of `NNc1ccccc1` , thanks.
64.5
